Where do the numbers come from? From patent US20140296146A1.

Measurement Target: T1, h-FXIIa (human, UniProt P00748 20-615)
T1 construct: also called factor XIIa
T1 sequence (looked up): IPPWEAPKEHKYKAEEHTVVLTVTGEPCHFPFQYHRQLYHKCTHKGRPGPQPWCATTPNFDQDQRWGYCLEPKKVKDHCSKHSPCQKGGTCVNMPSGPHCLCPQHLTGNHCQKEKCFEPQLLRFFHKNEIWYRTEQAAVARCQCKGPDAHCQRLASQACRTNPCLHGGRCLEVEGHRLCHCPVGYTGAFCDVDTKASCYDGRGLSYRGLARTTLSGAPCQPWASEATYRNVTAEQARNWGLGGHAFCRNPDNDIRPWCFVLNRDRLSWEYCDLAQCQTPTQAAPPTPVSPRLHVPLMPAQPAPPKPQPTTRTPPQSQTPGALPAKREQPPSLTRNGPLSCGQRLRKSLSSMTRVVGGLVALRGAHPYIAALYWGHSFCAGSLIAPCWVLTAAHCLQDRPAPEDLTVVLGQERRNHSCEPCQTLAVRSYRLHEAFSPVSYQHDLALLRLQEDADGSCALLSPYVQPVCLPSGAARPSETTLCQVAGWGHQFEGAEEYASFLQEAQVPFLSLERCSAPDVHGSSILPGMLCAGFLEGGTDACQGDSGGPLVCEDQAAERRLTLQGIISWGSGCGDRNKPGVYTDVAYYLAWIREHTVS
Procedure Text: S2302 hydrolysis by h-FXIIa (5.01 nM); inhibitor 30 min 95° C.
Where no end group is shown, it is not given here.
Readout Kind: Ki (nM)
Quick note: give the figure in nM, leave out the unit.

What value of Ki has been recorded for this entry: HEERVCPKILMECKKDSDCLAECICLEHGYCG (Synthetic congener; also called HEE-TICA4) [TICA 5]
179000

What value of Ki has been recorded for this entry: RVCPRILMECKKDSDCLAECVCLEHGYCG (disulfide (positions not given here), Synthetic, folded peptide) [TICA 2]
108

What value of Ki has been recorded for this entry: RVCPKILMECKKDSDCLAECICLEHGYCG (disulfide (positions not given here), Synthetic congener) [TICA 4]
1340

What value of Ki has been recorded for this entry: Corn trypsin inhibitor (other, UniProt P01088 29-138, looked up, also called CTI) SAGTSCVPGWAIPHNPLPSCRWYVTSRTCGIGPRLPWPELKRRCCRELADIPAYCRCTALSILMDGAIPPGPDAQLEGRLEDLPGCPREVQRGFAATLVTEAECNLATIS
5.1

What value of Ki has been recorded for this entry: HEERVCPRILMKCKKDSDCLAECVCLEHGYCG (Synthetic congener; also called HEE-TICA1) [TICA 3]
3180
